Target: cathepsin B (Homo sapiens, UniProt P07858)
Test: Inhibition of cathepsin B, incubation method
Format: biochemical
Details: second-order rate constant; NI = no inhibition
MEASURED_QUANTITY: kobs/[I] cathepsin B (M⁻¹ s⁻¹)
Give just the numeric value; M⁻¹ s⁻¹ need not be written.

Task item: Look at this molecule and give its reported kobs/[I] cathepsin B. CCOC(=O)[C@@H]1O[C@H]1C(=O)N(CC(C)C)NC(=O)C(Cc1ccc2ccccc2c1)NC(=O)CCC(=O)O (relative stereo) [Suc-Np2-ALeu-trans-EP-COOEt]
Reply: 0.8

Task item: Please look up its kobs/[I] cathepsin B: CCOC(=O)[C@@H]1O[C@H]1C(=O)N(CC(C)C)NC(=O)[C@H](CC(C)C)NC(=O)OCc1ccccc1 (relative stereo) [Cbz-Leu-ALeu-trans-EP-COOEt]
Reply: 23.32

Task item: Entry CCOC(=O)[C@@H]1O[C@H]1C(=O)N(CCc1ccccc1)NC(=O)OCc1ccccc1 (relative stereo) [Cbz-AHph-trans-EP-COOEt] : reported kobs/[I] cathepsin B = ?
Reply: 8.91

Task item: What measured kobs/[I] cathepsin B goes with CCOC(=O)[C@@H]1O[C@H]1C(=O)N(CC(C)C)NC(=O)OCc1ccccc1 (relative stereo) [Cbz-ALeu-trans-EP-COOEt] ?
Reply: 4.43

====

Biological target: papain (Carica papaya)
Sequence (P00784 134-345): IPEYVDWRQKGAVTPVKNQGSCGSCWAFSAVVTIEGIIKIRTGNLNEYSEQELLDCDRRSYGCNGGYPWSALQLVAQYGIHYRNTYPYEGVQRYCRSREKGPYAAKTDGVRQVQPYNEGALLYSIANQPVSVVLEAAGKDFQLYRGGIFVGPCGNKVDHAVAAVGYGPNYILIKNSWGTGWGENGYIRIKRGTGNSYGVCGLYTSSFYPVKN
Assay: Inhibition of papain, incubation method
Type: biochemical
Conditions: pH 7.5; second-order rate constant; NI = no inhibition; read-out: kobs/[I] papain
Can you tell me kinact/KI for the items I'm about to list?
Could you give me the number in M⁻¹ s⁻¹? Just the number is fine.

Task item: Any idea what its kinact/KI is? The compound is CCOC(=O)[C@H]1O[C@@H]1C(=O)N(CC(C)C)NC(=O)[C@H](CC(C)C)NC(=O)[C@H](CC(C)C)NC(=O)OCc1ccccc1 [Cbz-Leu-Leu-ALeu-(2S, 3S)-EP-COOEt]
Reply: 10.5

Task item: Query (compound): CCOC(=O)[C@@H]1O[C@H]1C(=O)N(CC(=O)O)NC(=O)[C@@H](NC(=O)[C@H](CCC(=O)O)NC(=O)[C@H](CC(C)C)NC(=O)OCc1ccccc1)[C@@H](C)O [26c (R,R)] ; field requested: kinact/KI
Reply: 0.24

Task item: Please give the measured kinact/KI for this compound: CCOC(=O)[C@@H]1O[C@H]1C(=O)N(CCc1ccccc1)NC(=O)[C@H](CC(C)C)NC(C)=O (relative stereo) [Ac-Leu-AHph-trans-EP-COOEt]
Reply: 1.9

Task item: Entry CCOC(=O)[C@@H]1O[C@H]1C(=O)N(CCC(N)=O)NC(=O)[C@H](Cc1ccccc1)NC(=O)[C@H](CC(C)C)NC(=O)OCc1ccccc1 (relative stereo) [Cbz-Leu-Phe-AGln-trans-EP-COOEt] has what kinact/KI?
Reply: 0.9
